Quick reference: IC50 of the listed items.
Target: human MEK4 (Homo sapiens (Human))
Sequence (P45985 whole entry): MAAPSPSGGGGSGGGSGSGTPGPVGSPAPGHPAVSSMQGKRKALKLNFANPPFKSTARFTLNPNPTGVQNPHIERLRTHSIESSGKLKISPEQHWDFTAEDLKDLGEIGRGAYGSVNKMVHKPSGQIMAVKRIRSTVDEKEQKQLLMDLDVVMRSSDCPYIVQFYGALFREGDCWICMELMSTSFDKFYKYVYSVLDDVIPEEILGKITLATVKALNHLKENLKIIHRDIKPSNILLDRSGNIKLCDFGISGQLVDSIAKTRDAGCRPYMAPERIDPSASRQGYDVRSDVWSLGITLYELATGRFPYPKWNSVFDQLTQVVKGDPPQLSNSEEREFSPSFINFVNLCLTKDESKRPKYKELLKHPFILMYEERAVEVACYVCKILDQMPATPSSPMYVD
Experiment: MEK4 ADP-Glo kinase activity assay (p38α substrate)
Assay type: biochemical
Settings: p38α substrate; value with 95% confidence interval in brackets; read-out: MEK4-p38, IC50, μM [95% Cl]

{"columns": ["compound", "IC50"],
 "data": [
  ["CC(C)(O)c1cccc(-c2n[nH]c3cccc(Cl)c23)c1", "> 22 µM"],
  ["Clc1cccc2[nH]nc(-c3cccnc3)c12", "> 22 µM"],
  ["CC(C)(C)OC(=O)n1nc(-c2ccc(O)cc2)c2cc(C(F)(F)F)ccc21", "> 20 µM"],
  ["COC(=O)c1ccc(-c2n[nH]c3cc(C(F)(F)F)ccc23)cc1", "> 20 µM"]
]}

* * *

Target: MEK5 (Homo sapiens (Human))
Sequence (Q13163 whole entry): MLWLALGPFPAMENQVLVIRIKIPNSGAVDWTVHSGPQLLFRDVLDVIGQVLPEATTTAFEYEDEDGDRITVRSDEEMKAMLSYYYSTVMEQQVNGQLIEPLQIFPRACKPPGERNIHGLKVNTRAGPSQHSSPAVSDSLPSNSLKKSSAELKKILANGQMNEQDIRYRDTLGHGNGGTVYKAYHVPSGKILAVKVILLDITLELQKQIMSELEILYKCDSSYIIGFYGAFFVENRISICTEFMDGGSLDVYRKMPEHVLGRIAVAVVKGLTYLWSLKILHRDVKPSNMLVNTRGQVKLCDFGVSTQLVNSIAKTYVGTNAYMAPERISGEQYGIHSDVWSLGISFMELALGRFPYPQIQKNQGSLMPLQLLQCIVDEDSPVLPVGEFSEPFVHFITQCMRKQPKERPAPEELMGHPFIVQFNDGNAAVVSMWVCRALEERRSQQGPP
Assay: MEK family profiling ADP-Glo, MEK5
Assay type: biochemical
Details: Erk5 substrate; 0.6 μM ATP; read-out: IC50 MEK isoform 5
Quick reference: IC50 of the listed items.
assay.readout: IC50 (µM)

{"columns": ["molecule", "target", "qualifying.sign", "val"],
 "data": [
  ["O=C(O)c1cccc(-c2n[nH]c3ccccc23)c1 [Compound 6a, 3-(1H-indazol-3-yl)benzoic Acid]", "MEK5 (Homo sapiens (Human))", ">", 27],
  ["O=C(O)c1ccc(-c2n[nH]c3cc(C(F)(F)F)ccc23)cc1 [Compound 6z]", "MEK5 (Homo sapiens (Human))", "=", 0.35],
  ["Cc1ccc2[nH]nc(-c3ccc(O)cc3)c2c1 [Compound 6q, 4-(5-methyl-2H-indazol-3-yl)phenol]", "MEK5 (Homo sapiens (Human))", "=", 25],
  ["Cc1ccc2[nH]nc(-c3ccc4c(c3)OCO4)c2c1 [Compound 6p]", "MEK5 (Homo sapiens (Human))", "=", 16]
]}

* * *

Target: MEK3 (Homo sapiens (Human))
Sequence (P46734 whole entry): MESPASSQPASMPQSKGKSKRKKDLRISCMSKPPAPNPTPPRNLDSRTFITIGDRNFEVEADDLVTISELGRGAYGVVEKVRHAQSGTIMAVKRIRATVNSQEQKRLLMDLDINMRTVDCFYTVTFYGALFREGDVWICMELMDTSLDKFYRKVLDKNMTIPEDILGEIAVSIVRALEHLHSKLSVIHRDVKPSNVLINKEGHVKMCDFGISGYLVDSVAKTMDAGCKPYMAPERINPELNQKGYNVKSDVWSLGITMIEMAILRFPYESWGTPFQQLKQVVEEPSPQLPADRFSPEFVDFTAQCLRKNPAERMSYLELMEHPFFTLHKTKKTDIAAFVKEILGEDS
Assay: MEK family profiling ADP-Glo, MEK3
Settings: p38α substrate; 0.6 μM ATP; read-out: IC50 MEK isoform 3
pIC50: −log10 of the molar value.
Tag: satisfied if measured pIC50 is not below 5, not satisfied if it is.

{"columns": ["compound", "target", "assigned.category"],
 "data": [
  ["O=C(O)c1ccc(-c2n[nH]c3ccc(C(F)(F)F)cc23)cc1 [Compound 6n]", "MEK3 (Homo sapiens (Human))", "satisfied"],
  ["Cc1ccc2[nH]nc(-c3ccc(F)c(CO)c3)c2c1 [Compound 6o]", "MEK3 (Homo sapiens (Human))", "satisfied"],
  ["O=C(O)c1ccc(-c2n[nH]c3cc(C(F)(F)F)ccc23)cc1 [Compound 6z]", "MEK3 (Homo sapiens (Human))", "not satisfied"],
  ["Cc1cccc2[nH]nc(-c3ccc(O)cc3)c12 [Compound 6b]", "MEK3 (Homo sapiens (Human))", "not satisfied"],
  ["O=C(O)c1cccc(-c2n[nH]c3ccccc23)c1 [Compound 6a, 3-(1H-indazol-3-yl)benzoic Acid]", "MEK3 (Homo sapiens (Human))", "not satisfied"],
  ["O=C(O)c1ccc(-c2n[nH]c3cc(F)ccc23)cc1 [Compound 6ff, 4-(6-fluoro-2H-indazol-3-yl)benzoic Acid]", "MEK3 (Homo sapiens (Human))", "not satisfied"],
  ["Cc1ccc2[nH]nc(-c3ccc(C(N)=O)cc3)c2c1 [Compound 6r, 4-(5-methyl-2H-indazol-3-yl)benzamide]", "MEK3 (Homo sapiens (Human))", "satisfied"],
  ["Fc1ccc2c(-c3ccc4c(c3)OCO4)n[nH]c2c1 [Compound 6ee]", "MEK3 (Homo sapiens (Human))", "not satisfied"]
]}

* * *

Biological target: MEK1 (Homo sapiens (Human), UniProt Q02750)
Sequence (Q02750 whole entry): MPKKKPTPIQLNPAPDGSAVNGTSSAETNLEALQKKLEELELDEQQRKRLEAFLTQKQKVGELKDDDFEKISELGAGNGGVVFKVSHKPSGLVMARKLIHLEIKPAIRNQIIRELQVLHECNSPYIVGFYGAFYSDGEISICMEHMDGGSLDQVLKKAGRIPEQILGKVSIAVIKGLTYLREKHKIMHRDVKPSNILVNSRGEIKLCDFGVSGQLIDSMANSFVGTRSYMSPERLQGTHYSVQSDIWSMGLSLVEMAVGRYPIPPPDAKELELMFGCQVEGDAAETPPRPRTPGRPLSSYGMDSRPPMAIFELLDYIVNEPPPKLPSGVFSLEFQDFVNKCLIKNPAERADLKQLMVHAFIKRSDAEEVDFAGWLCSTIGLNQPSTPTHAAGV
Experiment: MEK family profiling ADP-Glo, MEK1
Details: Erk2 substrate; 0.6 μM ATP; read-out: IC50 MEK isoform 1

{"columns": ["compound", "output.unit", "IC50"],
 "data": [
  ["Oc1ccc(-c2n[nH]c3ccc(C(F)(F)F)cc23)cc1 [Compound 6j]", "µM", 4.6],
  ["Cc1ccc2[nH]nc(-c3ccc(C(N)=O)cc3)c2c1 [Compound 6r, 4-(5-methyl-2H-indazol-3-yl)benzamide]", "µM", 3.9],
  ["O=C(O)c1ccc(-c2n[nH]c3cc(F)ccc23)cc1 [Compound 6ff, 4-(6-fluoro-2H-indazol-3-yl)benzoic Acid]", "µM", 15],
  ["Cc1ccc2[nH]nc(-c3ccc(C(=O)O)cc3)c2c1 [Compound 6s, 4-(5-methyl-2H-indazol-3-yl)benzoic Acid]", "µM", 17]
]}

* * *

Molecular target: MEK1 (Homo sapiens (Human), UniProt Q02750)
Assay: MEK family profiling ADP-Glo, MEK1
Settings: Erk2 substrate; 0.6 μM ATP; read-out: IC50 MEK isoform 1

{"columns": ["compound", "IC50 [µM]"],
 "data": [
  ["Cc1cccc2[nH]nc(-c3ccc(O)cc3)c12", 11],
  ["Cc1ccc2[nH]nc(-c3ccc(O)cc3)c2c1", 7.7],
  ["Cc1ccc2[nH]nc(-c3ccc(F)c(CO)c3)c2c1", 4],
  ["O=C(O)c1ccc(-c2n[nH]c3ccc(C(F)(F)F)cc23)cc1", 10],
  ["Cc1ccc2[nH]nc(-c3ccc4c(c3)OCO4)c2c1", 6.6],
  ["Fc1ccc2c(-c3ccc4c(c3)OCO4)n[nH]c2c1", 6.6],
  ["O=C(O)c1ccc(-c2n[nH]c3cc(C(F)(F)F)ccc23)cc1", 17],
  ["O=C(O)c1cccc(-c2n[nH]c3ccccc23)c1", 12]
]}

* * *

Biological target: MEK6 (Homo sapiens (Human), UniProt P52564)
Sequence (P52564 whole entry): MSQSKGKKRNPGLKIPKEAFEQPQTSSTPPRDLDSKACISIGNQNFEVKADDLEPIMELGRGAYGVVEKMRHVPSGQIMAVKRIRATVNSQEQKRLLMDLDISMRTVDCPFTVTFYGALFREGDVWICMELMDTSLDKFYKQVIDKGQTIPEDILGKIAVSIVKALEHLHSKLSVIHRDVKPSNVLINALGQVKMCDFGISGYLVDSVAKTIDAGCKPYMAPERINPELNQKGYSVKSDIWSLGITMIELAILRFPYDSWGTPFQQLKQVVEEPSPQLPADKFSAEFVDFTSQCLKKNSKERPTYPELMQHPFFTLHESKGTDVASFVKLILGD
Test: MEK family profiling ADP-Glo, MEK6
Conditions: p38α substrate; 0.6 μM ATP; read-out: IC50 MEK isoform 6
Quick reference: IC50 of the listed items.

{"columns": ["compound", "IC50"],
 "data": [
  ["O=C(O)c1ccc(-c2n[nH]c3ccc(C(F)(F)F)cc23)cc1", "6 µM"],
  ["O=C(O)c1ccc(-c2n[nH]c3cc(F)ccc23)cc1", "11 µM"],
  ["Cc1ccc2[nH]nc(-c3ccc(F)c(CO)c3)c2c1", "3.4 µM"],
  ["Cc1ccc2[nH]nc(-c3ccc(O)cc3)c2c1", "2.2 µM"],
  ["O=C(O)c1cccc(-c2n[nH]c3ccccc23)c1", "10 µM"],
  ["Cc1ccc2[nH]nc(-c3ccc(C(=O)O)cc3)c2c1", "8.7 µM"],
  ["O=C(O)c1ccc(-c2n[nH]c3cc(C(F)(F)F)ccc23)cc1", "8.8 µM"],
  ["Cc1cccc2[nH]nc(-c3ccc(O)cc3)c12", "21 µM"],
  ["Cc1ccc2[nH]nc(-c3ccc4c(c3)OCO4)c2c1", "3.2 µM"],
  ["Cc1ccc2[nH]nc(-c3ccc(C(N)=O)cc3)c2c1 [Compound 6r, 4-(5-methyl-2H-indazol-3-yl)benzamide]", "2.1 µM"],
  ["Fc1ccc2c(-c3ccc4c(c3)OCO4)n[nH]c2c1", "5.8 µM"],
  ["Oc1ccc(-c2n[nH]c3ccc(C(F)(F)F)cc23)cc1", "1.6 µM"]
]}

* * *

Quick reference: IC50 of the listed items.
Molecular target: MEK2 (Homo sapiens (Human), UniProt P36507)
Sequence (P36507 whole entry): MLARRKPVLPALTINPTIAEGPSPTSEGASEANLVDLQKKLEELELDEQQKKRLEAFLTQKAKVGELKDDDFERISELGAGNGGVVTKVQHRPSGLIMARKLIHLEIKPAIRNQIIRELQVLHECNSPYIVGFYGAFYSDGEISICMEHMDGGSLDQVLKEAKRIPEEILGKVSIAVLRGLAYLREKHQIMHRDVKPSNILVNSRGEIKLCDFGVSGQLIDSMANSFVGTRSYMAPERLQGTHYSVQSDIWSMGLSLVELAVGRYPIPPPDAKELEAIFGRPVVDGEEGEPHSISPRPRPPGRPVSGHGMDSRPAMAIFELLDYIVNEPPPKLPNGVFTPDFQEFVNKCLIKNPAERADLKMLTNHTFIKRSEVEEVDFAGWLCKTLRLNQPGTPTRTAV
Assay: MEK family profiling ADP-Glo, MEK2
Details: Erk2 substrate; 0.6 μM ATP; read-out: IC50 MEK isoform 2
assay.readout: IC50 (µM)

{"columns": ["compound", "target", "assay.readout", "qualifying.sign", "val"],
 "data": [
  ["O=C(O)c1ccc(-c2n[nH]c3ccc(C(F)(F)F)cc23)cc1 [Compound 6n]", "MEK2 (Homo sapiens (Human), UniProt P36507)", "IC50", ">", 27],
  ["O=C(O)c1ccc(-c2n[nH]c3cc(C(F)(F)F)ccc23)cc1 [Compound 6z]", "MEK2 (Homo sapiens (Human), UniProt P36507)", "IC50", ">", 27],
  ["Cc1ccc2[nH]nc(-c3ccc(C(=O)O)cc3)c2c1 [Compound 6s, 4-(5-methyl-2H-indazol-3-yl)benzoic Acid]", "MEK2 (Homo sapiens (Human), UniProt P36507)", "IC50", ">", 27],
  ["O=C(O)c1ccc(-c2n[nH]c3cc(F)ccc23)cc1 [Compound 6ff, 4-(6-fluoro-2H-indazol-3-yl)benzoic Acid]", "MEK2 (Homo sapiens (Human), UniProt P36507)", "IC50", ">", 27],
  ["Cc1ccc2[nH]nc(-c3ccc(F)c(CO)c3)c2c1 [Compound 6o]", "MEK2 (Homo sapiens (Human), UniProt P36507)", "IC50", "=", 5.4],
  ["Fc1ccc2c(-c3ccc4c(c3)OCO4)n[nH]c2c1 [Compound 6ee]", "MEK2 (Homo sapiens (Human), UniProt P36507)", "IC50", "=", 9.3],
  ["Cc1cccc2[nH]nc(-c3ccc(O)cc3)c12 [Compound 6b]", "MEK2 (Homo sapiens (Human), UniProt P36507)", "IC50", "=", 15],
  ["Cc1ccc2[nH]nc(-c3ccc(C(N)=O)cc3)c2c1 [Compound 6r, 4-(5-methyl-2H-indazol-3-yl)benzamide]", "MEK2 (Homo sapiens (Human), UniProt P36507)", "IC50", "=", 6.1]
]}
